Assay: enhancers of glutamate uptake in motor neurons, MN-1 cell line (AID 1612);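 further: tested at 1 µM final; 0% = mean of DMSO vehicle wells on each plate; positive means more glutamate uptake than control and negative means less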
Conditions: MN-1 motor neuron cells, stronger effect = higher value
Consider the following molecules; for each one, report its glutamate uptake change.
Please report the result as a number followed by the unit.

IN: Indicate the recorded glutamate uptake change value for this molecule: CC(C[N+](C)(C)C)OC(N)=O (configuration not stated)
OUT: -0.67%

IN: Could you please provide reported glutamate uptake change for CC(C)NCC(O)c1ccc(O)c(O)c1 (configuration not stated) ? Thanks!
OUT: -0.29%

IN: Complete the entry with glutamate uptake change for CCCN(CCC)S(=O)(=O)c1ccc(C(=O)O)cc1
OUT: -14.7%

IN: Give me measured glutamate uptake change, please, for this molecule: CS(=O)(=O)OCCCCOS(C)(=O)=O
OUT: 14.5%

IN: Identify measured glutamate uptake change corresponding to N[C@@H]1CONC1=O
OUT: -3.66%

IN: Please look at this molecule and report its glutamate uptake change: CN1C(C(=O)Nc2ccccn2)=C(O)c2ccccc2S1(=O)=O
OUT: -13.7%

IN: Consider the molecule CCc1nc(N)nc(N)c1-c1ccc(Cl)cc1 . State its measured glutamate uptake change.
OUT: 14.1%
